Biological target: Epac1 (Homo sapiens)
Construct: made in house
Assay: Epac activation assay, Epac1
Format: biochemical
Details: 7 μM compound

COMPOUND | kobs
COC1C2OP(=O)(O)OCC2OC1n1c(Sc2ccc(Cl)cc2)nc2c(N)ncnc21 [D-007, 8-pCPT-2′-O-Me-cAMP, reference compound] | 0.00321 s⁻¹
Nc1ncnc2c1ncn2[C@@H]1O[C@@H]2COP(=O)(O)O[C@H]2[C@H]1O [cAMP, reference compound] | 0.000189 s⁻¹
Nc1ncnc2c1nc(SCc1ccccc1)n2[C@@H]1O[C@@H]2CO[P@](O)(=S)O[C@H]2[C@H]1O [S-220, Sp-8-BnT-cAMPS] | 0.000149 s⁻¹
Cc1ccc(CSc2nc3c(N)ncnc3n2[C@@H]2O[C@@H]3CO[P@](O)(=S)O[C@H]3[C@H]2O)cc1 [S-230, Sp-8-pMeBnT-cAMPS] | 4.1e-05 s⁻¹

====

Biological target: Epac1 (Homo sapiens)
Construct: made in house
Sequence (O95398 150-881 isoform O95398-3): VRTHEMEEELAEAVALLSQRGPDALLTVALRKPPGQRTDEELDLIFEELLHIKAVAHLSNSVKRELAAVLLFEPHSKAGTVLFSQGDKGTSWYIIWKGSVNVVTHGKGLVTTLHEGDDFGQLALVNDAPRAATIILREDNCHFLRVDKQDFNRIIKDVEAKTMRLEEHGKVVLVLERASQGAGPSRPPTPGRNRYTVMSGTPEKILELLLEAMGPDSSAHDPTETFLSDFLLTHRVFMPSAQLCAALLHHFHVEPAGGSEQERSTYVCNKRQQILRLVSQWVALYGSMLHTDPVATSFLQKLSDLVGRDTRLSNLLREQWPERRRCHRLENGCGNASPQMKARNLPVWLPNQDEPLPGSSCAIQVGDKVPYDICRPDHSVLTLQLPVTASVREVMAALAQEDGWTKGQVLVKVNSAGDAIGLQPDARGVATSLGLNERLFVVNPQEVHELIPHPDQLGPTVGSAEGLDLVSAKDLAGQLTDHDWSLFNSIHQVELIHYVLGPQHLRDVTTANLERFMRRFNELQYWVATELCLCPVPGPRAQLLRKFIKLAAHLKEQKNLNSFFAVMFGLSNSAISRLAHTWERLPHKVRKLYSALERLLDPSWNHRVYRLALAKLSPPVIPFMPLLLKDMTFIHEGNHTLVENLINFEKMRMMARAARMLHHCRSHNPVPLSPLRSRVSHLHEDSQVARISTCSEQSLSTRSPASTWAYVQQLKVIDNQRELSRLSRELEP
Experiment: Epac activation assay, Epac1
Type: biochemical
Conditions: 0.3 μM compound
Attribute: kobs
REPORTED_METRIC: kobs (s⁻¹)

COMPOUND | UNIT_TEXT | TEST_RESULT
Nc1ncnc2c1ncn2[C@@H]1O[C@@H]2COP(=O)(O)O[C@H]2[C@H]1O [cAMP, reference compound] | s⁻¹ | 3e-05
COC1C2OP(=O)(O)OCC2OC1n1c(Sc2ccc(Cl)cc2)nc2c(N)ncnc21 [D-007, 8-pCPT-2′-O-Me-cAMP, reference compound] | s⁻¹ | 0.000569
Nc1ncnc2c1nc(SCc1ccccc1)n2[C@@H]1O[C@@H]2CO[P@](O)(=S)O[C@H]2[C@H]1O | s⁻¹ | 2e-05
Cc1ccc(CSc2nc3c(N)ncnc3n2[C@@H]2O[C@@H]3CO[P@](O)(=S)O[C@H]3[C@H]2O)cc1 | s⁻¹ | 1e-05

====

Molecular target: PKA-IIβ (Homo sapiens, UniProt P31323)
Construct: made in house
Sequence (P31323 whole entry): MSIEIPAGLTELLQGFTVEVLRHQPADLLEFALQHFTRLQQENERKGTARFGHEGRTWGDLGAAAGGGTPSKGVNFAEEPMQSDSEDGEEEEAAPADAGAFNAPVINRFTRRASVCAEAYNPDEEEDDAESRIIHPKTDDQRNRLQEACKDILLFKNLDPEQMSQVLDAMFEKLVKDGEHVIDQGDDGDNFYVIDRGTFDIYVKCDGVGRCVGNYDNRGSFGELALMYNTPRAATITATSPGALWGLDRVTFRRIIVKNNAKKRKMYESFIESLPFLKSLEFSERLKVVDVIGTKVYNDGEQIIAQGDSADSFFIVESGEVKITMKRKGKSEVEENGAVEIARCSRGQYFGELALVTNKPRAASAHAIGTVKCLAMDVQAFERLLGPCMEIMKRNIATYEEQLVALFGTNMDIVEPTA
Assay: PKA activity assay, PKA-IIβ
Format: biochemical
Conditions: PKAIIβ; concentration 1.00E-05 μM
Attribute: A (PKA activity)
REPORTED_METRIC: A (PKA activity)

COMPOUND | TEST_SYSTEM | TEST_RESULT
Nc1ncnc2c1ncn2[C@@H]1O[C@@H]2COP(=O)(O)O[C@H]2[C@H]1O [cAMP, reference compound] | PKA-IIβ (Homo sapiens, UniProt P31323) | 2.8563 U/mg
Cc1ccc(CSc2nc3c(N)ncnc3n2[C@@H]2O[C@@H]3CO[P@](O)(=S)O[C@H]3[C@H]2O)cc1 | PKA-IIβ (Homo sapiens, UniProt P31323) | 2.019 U/mg
Nc1ncnc2c1nc(SCc1ccccc1)n2[C@@H]1O[C@@H]2CO[P@](O)(=S)O[C@H]2[C@H]1O | PKA-IIβ (Homo sapiens, UniProt P31323) | 2.8563 U/mg
COC1C2OP(=O)(O)OCC2OC1n1c(Sc2ccc(Cl)cc2)nc2c(N)ncnc21 [D-007, 8-pCPT-2′-O-Me-cAMP, reference compound] | PKA-IIβ (Homo sapiens, UniProt P31323) | 2.8563 U/mg

====

Molecular target: PKA-IIα (Homo sapiens, UniProt P13861)
Sequence (P13861 whole entry): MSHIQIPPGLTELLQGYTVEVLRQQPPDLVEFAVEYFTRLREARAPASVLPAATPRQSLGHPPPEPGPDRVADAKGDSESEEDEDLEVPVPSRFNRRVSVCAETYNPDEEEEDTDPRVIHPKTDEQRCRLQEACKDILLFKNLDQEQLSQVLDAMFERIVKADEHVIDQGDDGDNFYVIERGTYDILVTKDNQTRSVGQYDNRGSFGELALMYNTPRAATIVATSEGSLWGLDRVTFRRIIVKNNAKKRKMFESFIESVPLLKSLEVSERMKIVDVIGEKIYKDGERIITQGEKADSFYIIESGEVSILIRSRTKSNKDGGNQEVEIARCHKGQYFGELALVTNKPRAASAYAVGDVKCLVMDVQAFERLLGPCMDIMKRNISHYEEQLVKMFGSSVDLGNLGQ
Experiment: PKA activity assay, PKA-IIα
Conditions: PKA-IIα; read-out: Kact
Attribute: EC50
REPORTED_METRIC: EC50 (nM)

MOLECULE | REPORTED_METRIC | UNIT_TEXT | RESULT_QUALIFIER | TEST_RESULT
Nc1ncnc2c1ncn2[C@@H]1O[C@@H]2COP(=O)(O)O[C@H]2[C@H]1O [cAMP, reference compound] | EC50 | nM | = | 80
Nc1ncnc2c1nc(SCc1ccccc1)n2[C@@H]1O[C@@H]2CO[P@](O)(=S)O[C@H]2[C@H]1O | EC50 | nM | = | 270
COC1C2OP(=O)(O)OCC2OC1n1c(Sc2ccc(Cl)cc2)nc2c(N)ncnc21 [D-007, 8-pCPT-2′-O-Me-cAMP, reference compound] | EC50 | nM | > | 70000

====

Attribute: A (PKA activity)
Molecular target: PKA-Iβ (Homo sapiens, UniProt P31321)
Construct: made in house
Sequence (P31321 whole entry): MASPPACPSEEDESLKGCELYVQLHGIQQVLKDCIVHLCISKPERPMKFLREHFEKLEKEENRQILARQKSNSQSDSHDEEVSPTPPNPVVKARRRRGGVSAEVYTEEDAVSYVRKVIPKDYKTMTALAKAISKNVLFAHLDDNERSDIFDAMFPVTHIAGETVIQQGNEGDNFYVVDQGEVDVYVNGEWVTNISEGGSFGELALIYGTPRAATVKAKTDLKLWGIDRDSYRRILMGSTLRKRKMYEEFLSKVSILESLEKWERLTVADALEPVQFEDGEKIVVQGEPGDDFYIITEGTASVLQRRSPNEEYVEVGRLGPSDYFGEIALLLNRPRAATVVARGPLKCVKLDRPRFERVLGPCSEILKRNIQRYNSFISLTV
Experiment: PKA activity assay, PKA-Iβ
Assay type: biochemical
Settings: PKAIβ; concentration 1.00E-05 μM

COMPOUND | A (PKA activity) (U/mg)
COC1C2OP(=O)(O)OCC2OC1n1c(Sc2ccc(Cl)cc2)nc2c(N)ncnc21 [D-007, 8-pCPT-2′-O-Me-cAMP, reference compound] | 4.53
Nc1ncnc2c1ncn2[C@@H]1O[C@@H]2COP(=O)(O)O[C@H]2[C@H]1O [cAMP, reference compound] | 4.525
Cc1ccc(CSc2nc3c(N)ncnc3n2[C@@H]2O[C@@H]3CO[P@](O)(=S)O[C@H]3[C@H]2O)cc1 [S-230, Sp-8-pMeBnT-cAMPS] | 4.53
Nc1ncnc2c1nc(SCc1ccccc1)n2[C@@H]1O[C@@H]2CO[P@](O)(=S)O[C@H]2[C@H]1O [S-220, Sp-8-BnT-cAMPS] | 4.525

====

Target: Epac2^Δ280 (Mus musculus)
Construct: made in house
Sequence (Q9EQZ6 281-993 isoform Q9EQZ6-3): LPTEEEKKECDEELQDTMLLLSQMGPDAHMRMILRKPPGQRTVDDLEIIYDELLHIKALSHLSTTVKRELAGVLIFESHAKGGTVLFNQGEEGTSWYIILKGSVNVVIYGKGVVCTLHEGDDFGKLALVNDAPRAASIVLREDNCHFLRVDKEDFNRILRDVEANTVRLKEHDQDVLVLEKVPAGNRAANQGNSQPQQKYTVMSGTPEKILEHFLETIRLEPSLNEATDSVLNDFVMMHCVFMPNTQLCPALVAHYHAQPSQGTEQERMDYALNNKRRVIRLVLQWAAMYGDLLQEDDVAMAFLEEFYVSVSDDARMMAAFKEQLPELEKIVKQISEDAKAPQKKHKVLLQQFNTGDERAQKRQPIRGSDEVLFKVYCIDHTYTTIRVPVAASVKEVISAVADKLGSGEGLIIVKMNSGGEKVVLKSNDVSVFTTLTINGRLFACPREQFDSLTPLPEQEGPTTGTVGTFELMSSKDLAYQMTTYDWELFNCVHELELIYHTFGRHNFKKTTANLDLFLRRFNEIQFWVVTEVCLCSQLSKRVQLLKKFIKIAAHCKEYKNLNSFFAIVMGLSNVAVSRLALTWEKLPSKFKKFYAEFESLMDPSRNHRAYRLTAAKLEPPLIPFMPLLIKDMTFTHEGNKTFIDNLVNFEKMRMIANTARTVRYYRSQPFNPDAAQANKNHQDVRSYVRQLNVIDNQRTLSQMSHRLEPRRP
Assay: Epac activation assay (Rap1B•mGDP fluorescence nucleotide exchange), Epac2^Δ280
Assay type: biochemical
Settings: Epac2^Δ280; maximal activity relative to cAMP

MOLECULE | TEST_SYSTEM | Rel. kmax
Nc1ncnc2c1nc(O)n2[C@@H]1O[C@@H]2CO[P@](O)(=S)O[C@H]2[C@H]1O | Epac2^Δ280 (Mus musculus) | 1.4
Nc1ncnc2c1nc(SCc1cccc([N+](=O)[O-])c1)n2[C@@H]1O[C@@H]2CO[P@](O)(=S)O[C@H]2[C@H]1O | Epac2^Δ280 (Mus musculus) | 4.3
Nc1ncnc2c1nc(NC1CCCCC1)n2[C@@H]1O[C@@H]2COP(=O)(O)O[C@H]2[C@H]1O | Epac2^Δ280 (Mus musculus) | 0.3
Nc1ncnc2c1nc([Se]Cc1ccccc1)n2[C@@H]1O[C@@H]2COP(=O)(O)O[C@H]2[C@H]1OCc1ccccc1 | Epac2^Δ280 (Mus musculus) | 1.0
CN(C)c1nc2c(N)ncnc2n1[C@@H]1O[C@@H]2CO[P@](O)(=S)O[C@H]2[C@H]1O | Epac2^Δ280 (Mus musculus) | 9.3
CO[C@H]1C2OP(=O)(O)OC[C@H]2O[C@H]1n1cnc2c(N)ncnc21 (stereo partly drawn) | Epac2^Δ280 (Mus musculus) | 1.0
CC(C)Nc1nc2c(N)ncnc2n1[C@@H]1O[C@@H]2CO[P@](O)(=S)O[C@H]2[C@H]1O | Epac2^Δ280 (Mus musculus) | 1.4
Nc1ncnc2c1nc(Br)n2[C@@H]1O[C@@H]2CO[P@](O)(=S)O[C@H]2[C@H]1F | Epac2^Δ280 (Mus musculus) | 1.2
O=P1(O)OCC2OC(n3cnc4c(NCc5ccccc5)ncnc43)C(O)C2O1 (stereo not drawn) | Epac2^Δ280 (Mus musculus) | 0.3
Nc1ncnc2c1nc(N1CCCC1)n2[C@@H]1O[C@@H]2COP(=O)(O)O[C@H]2[C@H]1O | Epac2^Δ280 (Mus musculus) | 4.4
O[C@@H]1[C@@H]2OP(O)(=S)OC[C@H]2O[C@H]1n1cnc2cc(Cl)c(Cl)cc21 (stereo partly drawn) | Epac2^Δ280 (Mus musculus) | 0.8
NCCNc1nc2c(N)ncnc2n1[C@@H]1O[C@@H]2COP(=O)(O)O[C@H]2[C@H]1O | Epac2^Δ280 (Mus musculus) | 0.5
Nc1ncnc2c1nc([Se]Cc1ccccc1)n2[C@@H]1O[C@@H]2COP(=O)(O)O[C@H]2[C@H]1O | Epac2^Δ280 (Mus musculus) | 1.7
COc1ccc(CSc2nc3c(N)ncnc3n2[C@@H]2O[C@@H]3CO[P@](O)(=S)O[C@H]3[C@H]2O)cc1 | Epac2^Δ280 (Mus musculus) | 5.4
Nc1ncnc2c1nc(Br)n2[C@@H]1O[C@@H]2COP(O)(=S)O[C@@H]2C1O (stereo partly drawn) | Epac2^Δ280 (Mus musculus) | 3.5
Nc1ncnc2c1nc(SCc1ccccc1)n2[C@@H]1O[C@@H]2CO[P@](O)(=S)O[C@H]2[C@H]1F | Epac2^Δ280 (Mus musculus) | 4.2
Nc1ncnc2c1ncn2[C@@H]1O[C@@H]2COP(=O)(O)O[C@H]2[C@H]1OCc1ccccc1 | Epac2^Δ280 (Mus musculus) | 0.4
Nc1ncnc2c1nc(SCc1ccccc1Cl)n2[C@@H]1O[C@@H]2CO[P@](O)(=S)O[C@H]2[C@H]1O | Epac2^Δ280 (Mus musculus) | 3.1
Nc1ncnc2c1nc(Sc1ccc(O)cc1)n2[C@@H]1O[C@@H]2CO[P@](O)(=S)O[C@H]2[C@H]1O | Epac2^Δ280 (Mus musculus) | 1.2
Nc1ncnc2c1nc(Cl)n2[C@@H]1O[C@@H]2COP(=O)(O)O[C@H]2[C@H]1O | Epac2^Δ280 (Mus musculus) | 0.8
Nc1ncnc2c1nc(Br)n2[C@@H]1O[C@@H]2CO[P@](O)(=S)O[C@H]2[C@H]1Cl | Epac2^Δ280 (Mus musculus) | 0.5
CO[C@H]1C2OP(=O)(O)OC[C@H]2O[C@H]1n1c(Br)nc2c(N)ncnc21 (stereo partly drawn) | Epac2^Δ280 (Mus musculus) | 1.6
Nc1ncnc2c1nc(OCc1ccccc1)n2[C@@H]1O[C@@H]2COP(=O)(O)O[C@H]2[C@H]1O | Epac2^Δ280 (Mus musculus) | 1.6
CO[C@@H]1[C@@H]2OP(=O)(O)OC[C@H]2O[C@H]1n1c([Se]Cc2ccccc2)nc2c(N)ncnc21 | Epac2^Δ280 (Mus musculus) | 2.3
O=P1(O)OC[C@H]2O[C@@H](n3cnc4c(Nc5ccccc5)ncnc43)[C@H](O)[C@@H]2O1 | Epac2^Δ280 (Mus musculus) | 0.6
C=CCNc1nc2c(N)ncnc2n1[C@@H]1O[C@@H]2COP(=O)(O)O[C@H]2[C@H]1O | Epac2^Δ280 (Mus musculus) | 1.5
Nc1ncnc2c1nc(Sc1ccc(Cl)cc1)n2[C@@H]1O[C@@H]2COP([O-])(=S)O[C@H]2[C@H]1O.[Na+] (stereo partly drawn) | Epac2^Δ280 (Mus musculus) | 0.7
